# System: Bacillus subtilis DB104 (SP-AmyQ fusion secretion)
# assay-comment: AmyQ secretion efficiency, weighted average sort bin (1 = best secretion, 10 = worst) (bin number (weighted average, 1-10)); higher = lower secretion efficiency
Answer N if AmyQ secretion efficiency is under 6, and Y if it is 6 or more.

Known results for sequences:
- ordered-residues: "MKRIRIPMTLALGAALTIAPLSFDSAEEN"
  category-label: "Y"
- ordered-residues: "MSSKAWFLPLVCVLLISGWLAPAASASAQTT"
  category-label: "N"

Problem: I'd appreciate it if you could say whether MKLKSKLLLSCLALSTVFVATTIVNAPTH has AmyQ secretion efficiency at least equal to 6.
Result: N

Problem: And MKRKTLSSLAISALSLGLLVSAPTASFAAES ?
Result: N

Problem: And MTKKAWFLPLVCVLLISGWLAPAASSSAQTT ?
Result: N

----------
# Tested on: Bacillus subtilis DB104 (SP-AmyQ fusion secretion)
# assay-comment: AmyQ secretion efficiency, weighted average sort bin (1 = best secretion, 10 = worst) (bin number (weighted average, 1-10)); higher = lower secretion efficiency
// values below are reported AmyQ secretion efficiency
Could you keep your reply to the number by itself?

Examples with answers:
- ordered-residues: "MLTKRLLTIYIMLLGLIAWFPGAAQGEEK"
  measured-parameter: "AmyQ secretion efficiency"
  test-result: 2.56
- ordered-residues: "MKKKIVAGLAVSAVVGAEAKTI"
  measured-parameter: "AmyQ secretion efficiency"
  test-result: 8.76
- ordered-residues: "MKRKKRGSKRTSALSLGLLVSAPTASFAAES"
  measured-parameter: "AmyQ secretion efficiency"
  test-result: 6.79
- ordered-residues: "MKKFVAVAALSTTAFGAHASAKEI"
  measured-parameter: "AmyQ secretion efficiency"
  test-result: 6.74
- ordered-residues: "MKKKRALTLCPAIVGSLLFFTAPASAHVS"
  measured-parameter: "AmyQ secretion efficiency"
  test-result: 3.92
- ordered-residues: "MKNMSCKTSGSTTGGTSFLTIGPLAHAQNS"
  measured-parameter: "AmyQ secretion efficiency"
  test-result: 6.59
- ordered-residues: "MKKRITYSGSQLLAVVAFAFTDSSKAKAAEA"
  measured-parameter: "AmyQ secretion efficiency"
  test-result: 8.92
- ordered-residues: "MKRIRIPMTLSTLALGAALTIAPLSFASAEEN"
  measured-parameter: "AmyQ secretion efficiency"
  test-result: 3.35

Problem: What does the data say about its AmyQ secretion efficiency? Entry: MKSKGSIMACLILFSFTITEISAFSN
Result: 6.82

Problem: And MGFVSSSIIALVTILMLSVTSLFALQPSAKAAEH ?
Result: 2.48

----------
# Test system: Bacillus subtilis DB104 (SP-AmyQ fusion secretion)
# assay-comment: AmyQ secretion efficiency, weighted average sort bin (1 = best secretion, 10 = worst) (bin number (weighted average, 1-10)); higher = lower secretion efficiency
Answer Not met if AmyQ secretion efficiency is under 3, and Met if it is 3 or more.

Known results for sequences:
- ordered-residues: "MKKKLAAGLTASAIVGTTLVVTPYEAATI"
  target-under-test: "Bacillus subtilis DB104 (SP-AmyQ fusion secretion)"
  category-label: "Met"
- ordered-residues: "MRKTIFAFLTGLMMFGTITALSASPD"
  target-under-test: "Bacillus subtilis DB104 (SP-AmyQ fusion secretion)"
  category-label: "Met"
- ordered-residues: "MKKVMLATALFLGLTPDGANAADL"
  target-under-test: "Bacillus subtilis DB104 (SP-AmyQ fusion secretion)"
  category-label: "Met"

Now for a further sequence.
Problem: I'd appreciate it if you could say whether MKLSVKIAGVLTVAAAAMSTAKMYATAKGN has AmyQ secretion efficiency at least equal to 3.
Result: Met
